ASSAY_SYSTEM: rat adrenergic α1B receptor (Rattus norvegicus, UniProt P15823)
Construct: rat adrenergic α1B receptor obtained from Wistar Rat liver; from tissue; host or cells: Wistar rat liver
Sequence (P15823 1-515): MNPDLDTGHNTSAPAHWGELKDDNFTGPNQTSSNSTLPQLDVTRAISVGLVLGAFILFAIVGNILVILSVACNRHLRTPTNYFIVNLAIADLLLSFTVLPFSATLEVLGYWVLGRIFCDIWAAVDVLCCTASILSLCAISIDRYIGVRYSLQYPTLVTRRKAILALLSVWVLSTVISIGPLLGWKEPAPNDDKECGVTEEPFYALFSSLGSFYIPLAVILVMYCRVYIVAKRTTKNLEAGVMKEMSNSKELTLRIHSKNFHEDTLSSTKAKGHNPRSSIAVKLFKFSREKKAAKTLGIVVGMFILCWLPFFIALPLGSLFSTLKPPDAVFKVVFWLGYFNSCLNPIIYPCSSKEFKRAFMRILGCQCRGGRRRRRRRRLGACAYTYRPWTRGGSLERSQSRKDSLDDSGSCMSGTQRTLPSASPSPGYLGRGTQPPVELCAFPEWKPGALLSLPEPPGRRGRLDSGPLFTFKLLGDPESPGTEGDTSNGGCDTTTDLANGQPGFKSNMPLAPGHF
TEST: Radioligand binding, adrenergic α1B ([3H]Prazosin)
CONDITION_SUMMARY: 0.1 μM compound; 0.1 µM
Values of Percentage inhibition of ligand binding, Adrenergic α1B greater than or equal to 20% map to 1.0; values below map to 0.0.

{"MOLECULE": "CNC(Cn1c2c(c3cc(C)ccc31)CN(C)CC2)c1ccc(F)cc1 (centres unmarked) [II-12]", "GROUP": 0.0}

Prompt: Decide: Percentage inhibition of ligand binding, Adrenergic α1B of COc1ccc(C(C)(O)Cn2c3c(c4cc(C)ccc42)CN(C)CC3)cc1 (centres unmarked) [254b] >= 20%?
Completion: 1.0

Prompt: Decide: Percentage inhibition of ligand binding, Adrenergic α1B of CC(=O)OC(C)(Cn1c2c(c3cc(C)ccc31)CN(C)CC2)c1cccnc1 (single isomer, unassigned) [II-15a] >= 20%?
Completion: 1.0

Prompt: Decide: Percentage inhibition of ligand binding, Adrenergic α1B of Cc1cnc2c(c1)c1c(n2CC(C)(O)c2cccnc2)CCN(C)C1 (single isomer, unassigned) [II-99a] >= 20%?
Completion: 0.0

Prompt: Decide: Percentage inhibition of ligand binding, Adrenergic α1B of CN1CCc2c(c3cc(Cl)c(Cl)cc3n2CC(C)(O)c2ccncc2)C1 (centres unmarked) [compound 253] >= 20%?
Completion: 1.0

Prompt: Decide: Percentage inhibition of ligand binding, Adrenergic α1B of CNC(Cn1c2c(c3cc(C)ccc31)CN(C)CC2)c1ccc(F)cc1 (single isomer, unassigned) [II-12b] >= 20%?
Completion: 0.0

Prompt: Decide: Percentage inhibition of ligand binding, Adrenergic α1B of CC(Cn1c2c(c3ccccc31)CN(C)CC2)c1ccc(F)cc1 (single isomer, unassigned) [272b] >= 20%?
Completion: 1.0

Prompt: Decide: Percentage inhibition of ligand binding, Adrenergic α1B of CC(=O)NC(Cn1c2c(c3cc(C)ccc31)CN(C)CC2)c1ccncc1 (single isomer, unassigned) [II-1a] >= 20%?
Completion: 0.0
